The measurements presented in this section are drawn from ChEMBL document CHEMBL2434884.

run_description: Selectivity index, ratio of IC50 for rat L6 cells to ratio of IC50 for chloroquine/pyrimethamine-resistant erythrocytic form of Plasmodium falciparum K1
Assay type: toxicity, cell-based
details: read-out: Selectivity Index
value_kind: selectivity ratio
Output spec: single numeric token, no unit.

Worked set:
| molecule | value_kind | experimental_value |
| --- | --- | --- |
| COc1cc2c(cc1C(C)NC/C=C/c1ccccc1)C=CC(C)(C)O2 (stereo unspecified) | selectivity ratio | 3.32 |
| COc1cc2c(cc1C(C)NCCc1ccccc1)CCC(C)(C)O2 (stereo unspecified) | selectivity ratio | 5.8 |
| CCCCNC(C)c1cc2c(cc1OC)OC(C)(C)CC2 (stereo unspecified) | selectivity ratio | 18.3 |

Incoming: Requested field: selectivity ratio. Item: COc1cc2c(cc1C(C)NCc1ccccc1)C=CC(C)(C)O2 (stereo unspecified)
Outgoing: 32.8

Incoming: Requested field: selectivity ratio. Item: CCNC(C)c1cc2c(cc1OC)OC(C)(C)C=C2 (stereo unspecified)
Outgoing: 22

Incoming: Requested field: selectivity ratio. Item: CCCCNC(C)c1cc2c(cc1OC)OC(C)(C)C=C2 (stereo unspecified)
Outgoing: 12.6

* * *

run_description: Selectivity index, ratio of IC50 for rat L6 cells to ratio of IC50 for chloroquine/pyrimethamine-resistant erythrocytic form of Plasmodium falciparum K1
Format: toxicity, cell-based
details: read-out: Selectivity Index
value_kind: selectivity ratio
Output spec: single numeric token, no unit.

Worked set:
| compound | selectivity ratio |
| --- | --- |
| COc1cc2c(cc1C(C)NCCCc1ccccc1)C=CC(C)(C)O2 (stereo not given) | 1.27 |
| COc1cc2c(cc1C(C)N1CCOCC1)C=CC(C)(C)O2 (stereo not given) | 15.9 |
| COc1cc2c(cc1C(C)N1CCCC1)C=CC(C)(C)O2 (stereo not given) | 10.8 |
| C/C=C(/C)C(=O)OC(C)c1cc2c(cc1OC)OC(C)(C)C=C2 (stereo not given) | 7.35 |
| COc1cc2c(cc1C(C)NCc1ccccc1)CCC(C)(C)O2 (stereo not given) | 10.1 |

Incoming: Requested field: selectivity ratio. Item: COc1cc2c(cc1C(C)NCCCc1ccccc1)CCC(C)(C)O2 (stereo not given)
Outgoing: 1.23

Incoming: Requested field: selectivity ratio. Item: COc1cc2c(cc1C(C)NC(=O)Cc1ccccc1)C=CC(C)(C)O2 (stereo not given)
Outgoing: 2.79

Incoming: Requested field: selectivity ratio. Item: COc1cc2c(cc1C(C)NCCCCc1ccccc1)C=CC(C)(C)O2 (stereo not given)
Outgoing: 3.35

Incoming: Requested field: selectivity ratio. Item: COc1ccc(CNC(C)c2cc3c(cc2OC)OC(C)(C)C=C3)cc1 (stereo not given)
Outgoing: 16

Incoming: Requested field: selectivity ratio. Item: COc1cc2c(cc1C(C)N(C)CCCc1ccccc1)C=CC(C)(C)O2 (stereo not given)
Outgoing: 13.5

Incoming: Requested field: selectivity ratio. Item: COc1cc2c(cc1C(C)NC(=O)c1ccccc1)C=CC(C)(C)O2 (stereo not given)
Outgoing: 3.01

Incoming: Requested field: selectivity ratio. Item: COc1cc2c(cc1C(C)NCCCCc1ccccc1)CCC(C)(C)O2 (stereo not given)
Outgoing: 3.94

Incoming: Requested field: selectivity ratio. Item: CC(NCc1ccccc1)c1cc2c(cc1O)OC(C)(C)C=C2 (stereo not given)
Outgoing: 6760

Incoming: Requested field: selectivity ratio. Item: COc1cc2c(cc1C(C)N[C@@H](C)c1ccccc1)C=CC(C)(C)O2 (stereo not given in full)
Outgoing: 44.4

Incoming: Requested field: selectivity ratio. Item: COc1cc2c(cc1C(C)OCc1ccccc1)C=CC(C)(C)O2 (stereo not given)
Outgoing: 4.64
